- protocol_notes: CREB reporter modulators under forskolin, primary screen, cell-based, PC12, CRE-LacZ reporter, forskolin-stimulated (AID 1146);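 note: PC12 cells with 6xCRE LacZ reporter stimulated by forskolin 10 µM; beta-galactosidase reporter signal reflecting CREB driven transcription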
- experimental_parameters: luminescence, 4.5 h, higher = more signal, called active from +8 up or from −8 down
Use -0.5 as the dividing line for z-score, with the line itself on the yes side and lower values as no.

stdin: Threshold query (z-score >= -0.5) on COc1ccc([Si](C)(C)[C@@H]2[C@@H](CC(=O)N(CCO)Cc3ccccc3)O[C@]3(C(=O)N(Cc4cccc(N5CCOC5=O)c4)c4ccccc43)[C@H]2C)cc1
stdout: no

stdin: Threshold query (z-score >= -0.5) on COC(=O)[C@@]1(Cc2ccc(F)cc2)[C@H]2c3cc(C(=O)N(C)C)n(Cc4cc(F)cc5c4OCOC5)c3C[C@H]2CN1C(=O)c1ccccc1
stdout: yes

stdin: Threshold query (z-score >= -0.5) on CC(C)N1C(=O)C[C@@](C(=O)NCCCN(C)C)(c2ccc([N+](=O)[O-])cc2)[C@H]1c1ccc(CO)cc1
stdout: yes

stdin: Threshold query (z-score >= -0.5) on O=C1C[C@@](C(=O)NCCN2CCOCC2)(c2ccc([N+](=O)[O-])cc2)[C@@H](c2ccc(CO)cc2I)N1C1CCCCC1
stdout: no

stdin: Threshold query (z-score >= -0.5) on O=C1O[C@H](c2ccccc2)[C@H](c2ccccc2)N2[C@H]1[C@@H](C(=O)NC[C@H](O)c1ccccc1)[C@]1(C(=O)Nc3ccc(C#CCCO)cc31)[C@H]2c1ccc(OCCO)cc1
stdout: yes

stdin: Threshold query (z-score >= -0.5) on CCOC(=O)C[C@H]1[C@H](OC(=O)c2ccccc2-c2ccccc2)[C@@H](NC(=O)C2CCCCC2)c2cc(OCCCO)ccc2N1C(=O)Cc1ccc(OC)cc1
stdout: yes

stdin: Threshold query (z-score >= -0.5) on O=C1O[C@H](c2ccccc2)[C@H](c2ccccc2)N2[C@H]1[C@@H](C(=O)Nc1nc3ccccc3s1)[C@]1(C(=O)Nc3ccc(C#CCCO)cc31)[C@H]2c1ccc(O)cc1
stdout: no

stdin: Threshold query (z-score >= -0.5) on CCCC[C@@H](O)C1=C(COc2ccccc2)C[C@H]2C(=O)N(C)C(=O)[C@H]2[C@H]1CO
stdout: no

stdin: Threshold query (z-score >= -0.5) on CC(C)C[C@@H]1NC(=O)[C@@H]2C[C@H](C(=O)NCCCCN(C)C)[C@H](c3cccc(OCCO)c3)N2C1=O
stdout: yes

stdin: Threshold query (z-score >= -0.5) on CCOC(=O)c1ccc(NC(=O)O[C@H]2[C@H](OC(=O)Nc3ccc4c(c3)OCO4)[C@H](OC(=O)Nc3ccc4c(c3)OCO4)[C@@H](OC)O[C@@H]2CO)cc1
stdout: yes

stdin: Threshold query (z-score >= -0.5) on COc1ccc([Si](C)(C)[C@@H]2[C@@H](CC(=O)N(CCO)Cc3ccccc3)O[C@]3(C(=O)N(Cc4cccc(N5C(=O)c6cccc7cccc5c67)c4)c4ccccc43)[C@H]2C)cc1
stdout: no

stdin: Threshold query (z-score >= -0.5) on CCOC(=O)C[C@H]1[C@H](OC(=O)c2ccc(C(=O)c3ccccc3)cc2)[C@@H](NC(=O)Cc2ccc(OC)cc2)c2cc(OCCCO)ccc2N1C(=O)c1ccccc1
stdout: yes

stdin: Threshold query (z-score >= -0.5) on COc1ccc(CN(C2=CC[C@@]3(C(N)=O)C(=O)C(Cl)=C(Cl)C(=O)[C@@]3(C#N)C2)S(=O)(=O)c2ccc(Br)cc2)cc1
stdout: yes

stdin: Threshold query (z-score >= -0.5) on CN(C)C(=O)[C@@]1(Cc2ccccc2CN=[N+]=[N-])N=C(c2ccc(OCCCO)cc2)O[C@H]1c1ccccc1CN=[N+]=[N-]
stdout: yes

stdin: Threshold query (z-score >= -0.5) on C=C(/C(=C/C[C@H](OC(C)=O)c1ccccc1OCCO)c1cc(C(=O)OC)ccc1OC)C(C)C
stdout: no

stdin: Threshold query (z-score >= -0.5) on C=CCC(OC(C)=O)[C@@H]1[C@@H](N(Cc2ccc(-c3cccc(C(F)(F)F)c3)o2)C(=O)c2ccc(-c3ccccc3)cc2)c2cc(OCCCO)ccc2N1C(=O)c1ccc2ccccc2n1 (some centres not stated)
stdout: yes

stdin: Threshold query (z-score >= -0.5) on O=C1C2C=CC(C(O)c3ccc(F)cc3)N(n3cnnc3)C2C(=O)N1Cc1ccccc1 (configuration not stated)
stdout: yes

stdin: Threshold query (z-score >= -0.5) on COC(=O)[C@@]1(Cc2ccccc2N=[N+]=[N-])N=C(c2ccc(OCCCO)cc2)O[C@H]1c1ccccc1N=[N+]=[N-]
stdout: yes

stdin: Threshold query (z-score >= -0.5) on COCCOC(=O)N1C(=O)[C@@]2(c3ccccc31)[C@H](C(=O)N1CCN(c3ncccn3)CC1)[C@H]1C(=O)O[C@H](c3ccccc3)[C@H](c3ccccc3)N1[C@@H]2c1ccc(O)cc1
stdout: yes

stdin: Threshold query (z-score >= -0.5) on CN(C)CCCNC(=O)[C@@H]1c2ccccc2C(=O)N(Cc2ccccc2Cl)[C@H]1c1ccc(CO)cc1
stdout: yes

stdin: Threshold query (z-score >= -0.5) on CCOC(=O)C[C@H]1[C@H](OC(=O)c2cc3ccccc3oc2=O)[C@@H](NC(=O)c2ccc(-c3ccccc3)cc2)c2cc(OCCCO)ccc2N1C(=O)c1ccccc1
stdout: no
